system: antibodies in sera from SARS patients (sera 1a, 1b, 2, 6, 37, 62, London, SARS-yellow, SARS-green); type: binding, human; design: unit not given here
Test readout: Binding of serum 37 to looped/cyclic peptides of protein X1 of SARS-CoV Urbani
Number only, please.

QUERY: Could you tell me which Binding of serum 37 to looped/cyclic peptides of protein X1 of SARS-CoV Urbani is on file for TGIENATFFIFNKLV ?
RESULT: 0.7

QUERY: Next: VTDTIVVTEGDGIST
RESULT: 0.4

QUERY: Continue with TDTIVVTEGDGISTP
RESULT: 0.3

QUERY: Also check FTEVYYQLESTQITT
RESULT: 0.7

Data provenance is patent US20070128217A1.
